Give Binding to 1 nM Flk-1, % for every item shown.
Biological target: mouse vascular endothelial growth factor receptor-2 Fc chimera (Flk-1-Fc) (mouse) (UniProt P35918)
Sequence (P35918 20-762, change not shown): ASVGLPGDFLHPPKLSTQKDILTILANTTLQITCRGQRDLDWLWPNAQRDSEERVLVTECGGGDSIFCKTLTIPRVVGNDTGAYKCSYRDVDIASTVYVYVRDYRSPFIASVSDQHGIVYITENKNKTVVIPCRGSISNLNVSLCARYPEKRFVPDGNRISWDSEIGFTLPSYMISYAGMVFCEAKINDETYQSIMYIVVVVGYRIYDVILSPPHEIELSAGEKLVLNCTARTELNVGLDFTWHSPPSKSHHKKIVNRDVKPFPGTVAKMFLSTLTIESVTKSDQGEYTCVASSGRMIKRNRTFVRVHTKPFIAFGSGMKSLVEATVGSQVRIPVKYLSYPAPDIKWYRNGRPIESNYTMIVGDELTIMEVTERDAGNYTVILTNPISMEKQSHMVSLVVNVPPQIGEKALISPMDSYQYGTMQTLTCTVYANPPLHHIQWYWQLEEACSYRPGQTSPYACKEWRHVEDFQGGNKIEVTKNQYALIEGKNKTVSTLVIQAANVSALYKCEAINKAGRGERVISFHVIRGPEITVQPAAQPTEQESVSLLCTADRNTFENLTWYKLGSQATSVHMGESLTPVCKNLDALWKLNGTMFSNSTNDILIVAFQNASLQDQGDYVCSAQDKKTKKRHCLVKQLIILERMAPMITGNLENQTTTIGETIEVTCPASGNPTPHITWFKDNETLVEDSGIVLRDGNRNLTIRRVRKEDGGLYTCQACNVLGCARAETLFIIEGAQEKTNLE
Assay: radioactive equilibrium binding, 1 nM Flk-1-Fc
Answer format reminder: number followed by unit.

So what does the record say about Binding to 1 nM Flk-1, % for EGE10 (designed binder) EVVAATPTSLLISWRHPHFPTRYYRITYGETGGNSPVQEFTVPLQPPTATISGLKPGVDYTITGYAVTMGPNDRELLTPISINYRT ?
1%

Binding to 1 nM Flk-1, % lookup needed for EGE11 (Table 2 row SEQ ID NO 88) (designed binder) EVVAATPTSLLISWRHPHFPTRYYRITYGETGGNSPVQEFTVPLQPPTATISGLKPGVDYTITGYAVTMGKNDRELLTPISINYRT , thanks.
1%

GET /values?readout=Binding to 1 nM Flk-1, %&item= G1 (designed binder) EVVAATPTSLLISWRHPHFPTRYYRITYGETGGNSPVQEFTVPLQPPTATISGLKPGVDYTITGYAVTEGRNGRELMVPISINYRT
2%

Consider the binder E13 (designed binder) EVVAATPTSLLISWRHPHFPTRYYRITYGETGGNSPVQEFTVPLQPPTATISGLKPGVDYTITGYAVTLEQNGRELMTPISINYRT and give its measured Binding to 1 nM Flk-1, %.
1%

Consider the binder shown here: E15 (designed binder) EVVAATPTSLLISWRHPHFPTRYYRITYGETGGNSPVQEFTVPLQPPTATISGLKPGVDYTITGYAVTLEPNGRYLMVPISINYRT What is its recorded Binding to 1 nM Flk-1, %?
2%
